- System: SK-OV-3 ovarian
- assaySummary: NCI-60 one-dose screen, 48 h
- statedConditions: 10 µM unless noted
About 83,000 compounds went through this panel and 20% of them were active in at least one assay; those are over-represented in the sample as a whole. Active and inactive are the calls of the source. Rule for the calls: active = growth percent below 10; inactive = the rest.
Choose one outcome from this list and give only that: 1 for active, 0 for inactive

The examples below pair each entry with its known result.
{"compound": "Cc1ccc(N(C(=O)CCc2c[nH]c3ccccc23)[C@H](C(=O)Nc2ccc(Cl)cc2)c2cccc([N+](=O)[O-])c2)cc1", "qualitativeLabel": 0}
{"compound": "COc1ccc2occ(C3=C(c4c[nH]c5ccccc45)C(=O)N(O)C3=O)c2c1", "qualitativeLabel": 0}
{"compound": "C[C@H]1[C@H]2[C@H]3CC[C@@H]4[C@@]5(C)C/C(=C/c6ccco6)C(=O)C(C)(C)[C@@H]5CC[C@@]4(C)[C@]3(C)CC[C@]23CO[C@]1(C)[C@@H](C(=O)/C=C\\c1ccco1)C3", "qualitativeLabel": 0}
{"compound": "NC(N)=Nc1nc2ccccc2n2c1nc1ccccc12", "qualitativeLabel": 0}
{"compound": "COC(=O)/C=C1\\S/C(=N\\NS(=O)(=O)c2ccc(C)cc2)N(c2ccccc2)C1=O", "qualitativeLabel": 0}
{"compound": "Cc1ccc(CCC(=O)Nc2ncc(Cc3cc(Cl)ccc3Cl)s2)o1", "qualitativeLabel": 0}
{"compound": "Cc1ccc(/C=C/c2c(C(=O)/C=C/c3ccc(C(F)(F)F)cc3)c(C)nc3ccccc23)cc1", "qualitativeLabel": 1}
{"compound": "CCOc1ccccc1-n1c(CN2CCN(C(=O)COc3ccc(CNCCCCCCN4C5CCCC4CC(OC(=O)Nc4cc(C)ccc4OC)C5)cc3)CC2)nc2ccccc2c1=O (centres undefined)", "qualitativeLabel": 1}

Turning now to a further record.
Lookup: Test call, this compound: CCCCCCCCCOc1c(OC)cc(C2CC(=O)Nc3c2c(C)nn3-c2nc3ccccc3[nH]2)cc1OC (centres undefined)
Found: 1

---

- System: NCI-H522 lung
- assaySummary: NCI-60 one-dose screen, 48 h (100 = growth as untreated, 0 = no growth, -100 = all killed)
- statedConditions: 10 µM unless noted
Compounds without any hit were thinned out: in the full panel of roughly 83,000, 20% have a hit.
recordedMetric: growth (%)
Kindly provide the numeric value in % only, without the unit symbol.

Below, 5 compounds whose answers are already recorded.
{"compound": "N#C/C(=C\\c1ccc2c(c1)OCO2)n1nnc2cc(F)c(F)cc21", "growth (%)": 18.3}
{"compound": "O=C(/C=C/c1cccc(O)c1)c1cccc(-n2cc(-c3ccc4ccccc4c3)[nH]c2=O)c1", "growth (%)": 75.9}
{"compound": "O=C(CSc1nnc(-c2ccc(NC(=O)c3cccnc3)cc2)o1)N[C@@H](Cc1ccc(O)cc1)C(=O)O", "growth (%)": 91}
{"compound": "COC1=CC(=O)C[C@@H](C)[C@]12Oc1c(Cl)c(OC)cc(OC)c1C2=O", "growth (%)": 80.5}
{"compound": "N[C@@H](CCCCNCC(=O)O)C(=O)O", "growth (%)": 96.3}

Lookup: Consider the compound CC1=C(SCCC(=O)OC(C[Se]C2=C(C)C(=O)c3ccccc3C2=O)C(=O)NCCCCCC(=O)OCc2ccccc2)C(=O)c2ccccc2C1=O (centres undefined) and give its measured growth.
Found: 20.7

Lookup: Consider the compound `O=C(Nc1cccc(Cl)c1)c1cc(N=Nc2ccc([N+](=O)[O-])cc2Cl)ccc1O` and give its measured growth.
Found: -16.5
